test system: SF-295 (CNS cancer); assay: NCI sulforhodamine B (SRB) anticancer assay, SF-295; assay type: cell-based; details: SF-295 (CNS cancer) cells; read-out: LC50 (the source's name)
result-type: CC50 (µM)

smiles_data=CCCCCC(=O)NC1=C2C(=CSS2(=O)=O)N(C)C1=O quantitative_readout=1.58
smiles_data=CC(C)CCCC(=O)NC1=C2C(=CSS2(=O)=O)N(C)C1=O quantitative_readout=2.12

----------
Reported CC50 values follow for various compounds
tested on: DU-145 (Prostate cancer); assay: NCI sulforhodamine B (SRB) anticancer assay, DU-145; assay type: cell-based; details: DU-145 (Prostate cancer) cells; read-out: LC50 (the source's name)
result-type: CC50

smiles_data=CCCCCC(=O)NC1=C2C(=CSS2(=O)=O)N(C)C1=O result="1.8 µM"
smiles_data=CC(C)CCCC(=O)NC1=C2C(=CSS2(=O)=O)N(C)C1=O result="1.6 µM"

----------
tested on: MCF-7; assay: NCI sulforhodamine B (SRB) anticancer assay, MCF-7; type: cell-based; conditions: MCF-7 cells; read-out: LC50 (the source's name)
result-type: CC50

compound=CCCCCC(=O)Nc1c2sscc-2n(C)c1=O result_type=CC50 result="560 nM"
compound=CC(C)CCCC(=O)NC1=C2C(=CSS2(=O)=O)N(C)C1=O result_type=CC50 result="950 nM"
compound="CC(C)CCCC(=O)Nc1c2[s+]([O-])scc-2n(C)c1=O (centres unmarked)" result_type=CC50 result="550 nM"
compound=CCCCCC(=O)NC1=C2C(=CSS2(=O)=O)N(C)C1=O result_type=CC50 result="890 nM"
compound="CCCCCC(=O)Nc1c2[s+]([O-])scc-2n(C)c1=O (centres unmarked)" result_type=CC50 result="470 nM"

----------
test system: NCI-H460; test: NCI sulforhodamine B (SRB) anticancer assay, NCI-H460; type: cell-based; settings: NCI-H460 cells; read-out: LC50 (the source's name)
Reported CC50 values follow for various compounds
result-type: CC50 (nM)

smiles_data=CC(C)CCCC(=O)NC1=C2C(=CSS2(=O)=O)N(C)C1=O target_system=NCI-H460 quantitative_readout=220
smiles_data=CCCCCC(=O)NC1=C2C(=CSS2(=O)=O)N(C)C1=O target_system=NCI-H460 quantitative_readout=280

----------
test system: Sk-Mel-28; experiment: NCI sulforhodamine B (SRB) anticancer assay, Sk-Mel-28; type: cell-based; settings: Sk-Mel-28 cells; read-out: LC50 (the source's name)
result-type: CC50

smiles_data=CC(C)CCCC(=O)NC1=C2C(=CSS2(=O)=O)N(C)C1=O result="730 nM"
smiles_data=CCCCCC(=O)NC1=C2C(=CSS2(=O)=O)N(C)C1=O result="190 nM"

----------
Reported CC50 values follow for various compounds
test system: HT29; experiment: NCI sulforhodamine B (SRB) anticancer assay, HT29; format: cell-based; details: HT29 cells; concentration at which half of the cancer cell population is killed; read-out: LC50 (the source's name)
result-type: CC50 (nM)

compound=CC(C)CCCC(=O)NC1=C2C(=CSS2(=O)=O)N(C)C1=O target_system=HT29 quantitative_readout=850
compound="CCCCCC(=O)Nc1c2[s+]([O-])scc-2n(C)c1=O (centres unmarked)" target_system=HT29 quantitative_readout=470
compound=CCCCCC(=O)Nc1c2sscc-2n(C)c1=O target_system=HT29 quantitative_readout=110
compound=CCCCCC(=O)NC1=C2C(=CSS2(=O)=O)N(C)C1=O target_system=HT29 quantitative_readout=220
compound="CC(C)CCCC(=O)Nc1c2[s+]([O-])scc-2n(C)c1=O (centres unmarked)" target_system=HT29 quantitative_readout=110
